- Tested on: RPMI. myeloma cell line bearing KRas^G12A oncogenic mutation
- experiment_description: Antiproliferative MTS assay, RPMI cells
- Assay type: cell-based
- condition_description: 72 h, compounds 1-23 and 47-52 median of experiments, 24-46 estimations and/or preliminary results, read-out: IC50 values: cell proliferation inhibition, RPMI
measurement_name: IC50 (µM)

Solved entries:
compound: CCNC(=O)N1CCc2cc(OC)c(OCCc3ccc(N)c(OC)c3)cc2C1c1ccc(Cl)cc1C (stereo not drawn) [Compound 14]
endpoint_unit: µM
IC50: 0.4

compound: CCNC(=O)N1CCc2cc(OC)c(OCCc3ccc(F)c(N)c3)cc2C1c1ccc(C)cc1C (stereo not drawn)
endpoint_unit: µM
IC50: 0.6

compound: CCNC(=O)N1CCc2cc(OC)c(OCCc3ccc(OC)c([N+](=O)[O-])c3)cc2C1c1ccc(C)cc1C (stereo not drawn)
endpoint_unit: µM
IC50: 0.2

compound: CCNC(=O)N1CCc2cc(OC)c(OCCc3ccc(OC)c(N)c3)cc2C1c1ccc(C)cc1C (stereo not drawn)
endpoint_unit: µM
IC50: 0.1

compound: CCNC(=O)N1CCc2cc(OC)c(OCCc3ccc(N)c(OC)c3)cc2C1c1ccc(Cl)cc1C (stereo not drawn) [Compound 32]
endpoint_unit: µM
IC50: 0.1

compound: COc1cc(CCOc2cc3c(cc2OC)CCN(C(=O)NCc2ccon2)C3c2ccc(F)cc2C)ccc1N (stereo not drawn)
endpoint_unit: µM
IC50: 0.9

compound: COc1cc(CCOc2cc3c(cc2OC)CCN(C(=O)NCc2cocn2)C3c2ccc(F)cc2C)ccc1N (stereo not drawn)
endpoint_unit: µM
IC50: 0.5

compound: COc1cc(CCOc2cc3c(cc2OC)CCN(C(=O)NCC(F)(F)F)C3c2ccc(C(F)(F)F)cc2C)ccc1N (stereo not drawn)
endpoint_unit: µM
IC50: 0.3

compound: COc1ccc(CCOc2cc3c(cc2OC)CCN(C(=O)NCC(F)(F)F)C3c2ccc(C(F)(F)F)cc2C)cc1N (stereo not drawn)
endpoint_unit: µM
IC50: 0.3

compound: COc1ccc(CCOc2cc3c(cc2OC)CCN(C(=O)NCC(F)(F)F)C3c2ccc(F)cc2C)cc1N (stereo not drawn)
endpoint_unit: µM
IC50: 0.1

I = COc1ccc(C2c3cc(OCCc4ccc(N)c(OC)c4)c(OC)cc3CCN2C(=O)NCC(F)(F)F)c(C)c1 (stereo not drawn)
II = COc1ccc(C2c3cc(OCCc4ccc(N)c(OC)c4)c(OC)cc3CCN2C(=O)NCc2cocn2)c(C)c1 (stereo not drawn)
III = COc1ccc(CCOc2cc3c(cc2OC)CCN(C(=O)NCC(F)(F)F)C3c2ccc(C)cc2C)cc1N (stereo not drawn)
Ranking field: IC50; order: falling. Respond with an ordered listing of the labels, as requested. II, I, III

* * *

- Test system: H358. non-small cell lung cancer line bearing KRas^G12C oncogenic mutation
- experiment_description: Antiproliferative MTS assay, H358 cells
- Type: cell-based
- condition_description: Homo sapiens, NCI-H358, 72 h, compounds 1-23, 47-52 and Reference Example 1 median of experiments, 24-46 estimations and/or preliminary results, read-out: IC50 values: cell proliferation inhibition, H358
measurement_name: IC50 (nM)

Solved entries:
compound: CCNC(=O)N1CCc2cc(OC)c(OCCc3ccc(OC)c(N)c3)cc2C1c1ccc(OC)cc1C (stereo not shown)
IC50 [nM]: 200
//
compound: COc1ccc(C2c3cc(OCCc4ccc(N)c(OC)c4)c(OC)cc3CCN2C(=O)NCC(F)(F)F)c(C)c1 (stereo not shown)
IC50 [nM]: 600
//
compound: COc1ccc(CCOc2cc3c(cc2OC)CCN(C(=O)NCc2cocn2)C3c2ccc(Cl)cc2C)cc1N (stereo not shown)
IC50 [nM]: 300

a = COc1ccc(CCOc2cc3c(cc2OC)CCN(C(=O)NCc2ccon2)C3c2ccc(C)cc2C)cc1N (stereo not shown)
b = COc1ccc(CCOc2cc3c(cc2OC)CCN(C(=O)NCC(F)(F)F)C3c2ccc(F)cc2C)cc1N (stereo not shown)
c = COc1ccc(C2c3cc(OCCc4ccc(OC)c(N)c4)c(OC)cc3CCN2C(=O)NCc2ccon2)c(C)c1 (stereo not shown)
Order the records, beginning with the lowest IC50 and ending with the highest. Respond with an ordered listing of the labels, as requested. c, b, a
